- Experimental target: T1, Dog Semaphorin3A-Sema Domain, TPP-19121 (dog, UniProt Q63548 21-569 (rat entry), limits assumed)
- T1 construct: produced inhouse
- T1 chain: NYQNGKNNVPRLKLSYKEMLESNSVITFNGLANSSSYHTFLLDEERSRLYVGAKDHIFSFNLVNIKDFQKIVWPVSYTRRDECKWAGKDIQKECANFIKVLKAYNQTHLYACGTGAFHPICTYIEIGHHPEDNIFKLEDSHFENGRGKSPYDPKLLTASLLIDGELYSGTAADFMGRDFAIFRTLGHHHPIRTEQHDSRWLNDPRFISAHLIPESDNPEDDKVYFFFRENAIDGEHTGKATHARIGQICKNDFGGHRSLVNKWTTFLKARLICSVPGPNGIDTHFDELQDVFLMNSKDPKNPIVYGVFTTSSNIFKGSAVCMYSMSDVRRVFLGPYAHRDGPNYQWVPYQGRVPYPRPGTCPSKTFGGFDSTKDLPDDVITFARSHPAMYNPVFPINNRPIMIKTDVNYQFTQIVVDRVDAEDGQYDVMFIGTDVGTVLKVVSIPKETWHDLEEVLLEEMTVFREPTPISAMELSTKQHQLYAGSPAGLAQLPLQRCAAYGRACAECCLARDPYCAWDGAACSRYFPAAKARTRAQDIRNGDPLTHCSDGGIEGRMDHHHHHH
- Test name: SPR, captured antibody, Sema3A domain analyte
Form field: Kd (one value per entry).
Unit nM implied. Number only.

// worked examples, Kd included
TPP-30789 (antibody, human IgG1, kappa, V domains shown, prior art, WO 2020/225400; also called BI clone II; Böhringer (BI) Clone II) VH: EVQLVESGGGLVQPGGSLRLSCAASGFPFSSYYMSWVRQAPGKGLEWVSTIIKSGGYAYYPDSVKDRFTISRDNSKNTLYLQMSSLRAEDTAVYYCVRGGQGAMDYWGQGTTVTVSS VL: EIVLTQSPATLSLSPGERATLSCRASQSIGDYLHWYQQKPGQAPRLLIKYASQSISGIPARFSGSGSGTDFTLTITSLEPEDFAVYYCQQGYSFPYTFGGGTKLEIKR = 0.11
TPP-17755 (antibody, human IgG1, lambda, V domains shown, also called Samsung; Samsung Prior Art F11) VH: EVQLLESGGGLVQTGGSLRLSCAASGFTFSDYAMSWVRQAPGKGLEWVSWIYYDSGSKYYADSVKGRFTISRDNSKNTLYLQMNSLRAEDTAVYYCAKLNGDFDYWGQGTLVTVSS VL: QSVLTQPPSASGTPGQRVTISCSGSSSNIGNNDVSWYQQLPGTAPKLLIYADSHRPSGVPDRFSGSKSGTSASLAISGLRSEDEADYYCGAWDSSLSGYVFGGGTKLTVLG = 7.5
TPP-15374 (antibody, human IgG1, lambda, V domains shown, human IgG1; also called IgG1, hit from panning; parental mAb) VH: EVQLLESGGGLVQPGGSLRLSCAASGFTFSSYEMNWVRQAPGKGLEWVSGISWNSGSIGYADSVKGRFTISRDNSKNTLYLQMNSLRAEDTAVYYCARSGYSSSWFDPDFDYWGQGTLVTVSS VL: QSVLTQPPSASGTPGQRVTISCTGSSSNIGAGYDVHWYQQLPGTAPKLLIYGNSNRPSGVPDRFSGSKSGTSASLAISGLRSEDEADYYCSSYAGSNPYVVFGGGTKLTVLG = 19

Give the value of Kd reported for the following: TPP-30790 (antibody, human IgG1, kappa, V domains shown, prior art, WO 2020/225400; also called BI clone III; Böhringer (BI) Clone III) VH: EVQLVESGGGLVQLGGSLRLSCAASGFTFSSYYMSWVRQAPGKGLEWVSTIIKSGGYAYYPDSVKDRFTISRDNSKNTLYLQMNSLRAEDTAVYYCVKGGQGAMDYWGQGTTVTVSS VL: EIVLTQSPATLSLSPGERATLSCRASQSIGDYLHWYQQKPGQAPRLLIYYASQSISGIPARFSGSGSGTDFTLTISSLEPEDFAVYYCQQGYSFPYTFGGGTKLEIKR
0.1

Return reported Kd. Input binder: TPP-30788 (antibody, human IgG1, kappa, V domains shown, prior art, WO 2020/225400; also called BI clone I; Böhringer (BI) Clone I) VH: EVQLVESGGGLVQPGGSLRLSCAASGFTFSSYYMSWVRQAPGKGLEWVSTIIKSGGYAYYPDSVKDRFTISRDNSKNTLYLQMSSLRAEDTAVYYCVRGGQGAMDYWGQGTTVTVSS VL: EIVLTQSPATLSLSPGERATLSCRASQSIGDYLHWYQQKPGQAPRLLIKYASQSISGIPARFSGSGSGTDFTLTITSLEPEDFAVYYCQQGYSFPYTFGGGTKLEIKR
0.11

Give the value of Kd reported for the following: TPP-30791 (antibody, human IgG1, kappa, V domains shown, prior art, WO 2020/225400; also called BI clone IV; Böhringer (BI) Clone IV) VH: EVQLVESGGGLLQLGGSLRLSCAASGFTFSSYYMSWVRQAPGKGLEWVSTIIKSGGYAYYPDSVKDRFTISRDNSKNTLNLQMNSLRAEDTAVYYCVKGGQGAMDYWGQGTTVTVSS VL: EIVLTQSPATLSLSPGERATLSCRASQSIGDYLHWYQQKPGQAPRLLIKYASQSISGIPARFSGSGSGTDFTLTISSLEPEDFAVYYCQQGYSFPYTFGGGTKLEIKR
0.078
